biological target: HLA-A*02:01; assay: IEDB peptide-MHC binding, purified MHC/direct/fluorescence; filed as Kd, often an IC50 or EC50 that approximates it; bounds were set here for any values at or beyond the usual limits of such assays; conditions: source organism: Burkholderia ambifaria AMMD
measurement label: Kd

Query: So what's the measured Kd for this one? YLNGGRRGY
Response: ≥ 20 µM

====

biological target: HLA-A*68:01; test: IEDB peptide-MHC binding, purified MHC/competitive/radioactivity; filed as Kd, often an IC50 or EC50 that approximates it; bounds were set here for any values at or beyond the usual limits of such assays; conditions: source organism: Mammarenavirus choriomeningitidis
measurement label: Kd (nM)
Give your result in nM as a bare value.

Query: So what's the measured Kd for this one? LVSFLLLAGR
Response: 36.4

====

target: HLA-A*26:01; experiment: IEDB peptide-MHC binding, purified MHC/competitive/fluorescence; filed as Kd, often an IC50 or EC50 that approximates it; bounds were set here for any values at or beyond the usual limits of such assays; details: source organism: Coxiella burnetii 'MSU Goat Q177'
measurement label: Kd

Query: So what's the measured Kd for this one? YYLIKYLHV
Response: ≥ 20 µM

====

target: HLA-B*40:01; assay: IEDB peptide-MHC binding, purified MHC/direct/fluorescence; filed as Kd, often an IC50 or EC50 that approximates it; bounds were set here for any values at or beyond the usual limits of such assays; conditions: source organism: Influenza A virus (A/WSN/1933(H1N1))
measurement label: Kd

Query: Form field: Kd recorded for NLEPGTFDL with HLA-B*40:01 (enter value)
Response: ≥ 20 µM

====

target: HLA-A*24:02; assay: IEDB peptide-MHC binding, purified MHC/competitive/fluorescence; bounds were set here for any values at or beyond the usual limits of such assays; conditions: source organism: Vaccinia virus WR
measurement label: pIC50
Just so you know, pIC50 here is -log10 of the concentration in molar units; reply with that number alone.

{"sequence input": "MSNGEHVPF", "assay system": "HLA-A*24:02", "measurement label": "pIC50", "measurement": 5.26}

Query: So what's the measured pIC50 for this one? LFTEQAFYT
Response: 4.26

====

molecular target: HLA-B*45:01; assay: IEDB peptide-MHC binding, purified MHC/competitive/radioactivity; filed as Kd, often an IC50 or EC50 that approximates it; bounds were set here for any values at or beyond the usual limits of such assays; details: source organism: Mammarenavirus machupoense
measurement label: pKd
Just so you know, pKd here is -log10 of the concentration in molar units; reply with that number alone.

{"sequence input": "RECYAQRFYL", "assay system": "HLA-B*45:01", "pKd": 5.84}

Okay, now this sequence:
Query: So what's the measured pKd for this one? CEEGKLCYLT
Response: 5.80

====

molecular target: HLA-A*02:12; experiment: IEDB peptide-MHC binding, purified MHC/direct/fluorescence; filed as Kd, often an IC50 or EC50 that approximates it; bounds were set here for any values at or beyond the usual limits of such assays; conditions: source organism: dengue virus type 1
measurement label: Kd

Query: Form field: Kd recorded for YMPSVVETL with HLA-A*02:12 (enter value)
Response: 9 nM

====

target: HLA-B*27:05; experiment: IEDB peptide-MHC binding, purified MHC/direct/fluorescence; filed as Kd, often an IC50 or EC50 that approximates it; bounds were set here for any values at or beyond the usual limits of such assays; details: source organism: Coxiella burnetii
pKd: −log10 of the molar value.
measurement label: pKd

Query: So what's the measured pKd for this one? SYGNANVSF
Response: ≤ 4.70

====

target: HLA-B*35:01; experiment: IEDB peptide-MHC binding, purified MHC/competitive/radioactivity; filed as Kd, often an IC50 or EC50 that approximates it; bounds were set here for any values at or beyond the usual limits of such assays; settings: source organism: Dengue virus 3 Martinique/1243/1999
measurement label: Kd (nM)
Give your result in nM as a bare value.

Example results:
{"sequence input": "MPTVIEHLER", "Kd, nM": 871}
{"sequence input": "MPGTFQTTTG", "Kd, nM": 157}

Okay, now this sequence:
Query: So what's the measured Kd for this one? EPIEGKVVQY
Response: 491

====

target: HLA-A*68:02; test: IEDB peptide-MHC binding, purified MHC/direct/fluorescence; filed as Kd, often an IC50 or EC50 that approximates it; bounds were set here for any values at or beyond the usual limits of such assays; settings: source organism: Vibrio cholerae O395
measurement label: Kd

Query: So what's the measured Kd for this one? VVSEIDLQW
Response: ≥ 20 µM

====

Consider the following sequences and their measured pKd readings.
target: HLA-A*31:01; assay: IEDB peptide-MHC binding, purified MHC/competitive/radioactivity; filed as Kd, often an IC50 or EC50 that approximates it; bounds were set here for any values at or beyond the usual limits of such assays; conditions: source organism: Mammarenavirus guanaritoense
Just so you know, pKd here is -log10 of the concentration in molar units; reply with that number alone.

{"sequence input": "IMAYVNQAHH", "assay system": "HLA-A*31:01", "measurement label": "pKd", "measurement": 5.95}

Query: So what's the measured pKd for this one? RSCSFKVGHH
Response: 6.32

====

biological target: HLA-A*69:01; test: IEDB peptide-MHC binding, purified MHC/direct/fluorescence; filed as Kd, often an IC50 or EC50 that approximates it; bounds were set here for any values at or beyond the usual limits of such assays; details: source organism: Giardia lamblia ATCC 50803
Consider the following sequences and their measured Kd readings.

Example results:
{"sequence input": "DYIYLPLLK", "assay system": "HLA-A*69:01", "Kd": "≥ 20 µM"}
{"sequence input": "MHDPHSIPL", "assay system": "HLA-A*69:01", "Kd": "≥ 20 µM"}

Query: Form field: Kd recorded for SLNPYYQSY with HLA-A*69:01 (enter value)
Response: ≥ 20 µM

====

biological target: HLA-B*27:05; experiment: IEDB peptide-MHC binding, purified MHC/direct/fluorescence; filed as Kd, often an IC50 or EC50 that approximates it; bounds were set here for any values at or beyond the usual limits of such assays; settings: source organism: Haemophilus influenzae
measurement label: Kd

Query: So what's the measured Kd for this one? VYFSPWFFL
Response: ≥ 20 µM

====

target: HLA-A*68:23; assay: IEDB peptide-MHC binding, purified MHC/competitive/fluorescence; filed as Kd, often an IC50 or EC50 that approximates it; bounds were set here for any values at or beyond the usual limits of such assays; settings: source organism: Yersinia pestis Nepal516
measurement label: pKd
Just so you know, pKd here is -log10 of the concentration in molar units; reply with that number alone.

Query: Form field: pKd recorded for MMMSTAVAF with HLA-A*68:23 (enter value)
Response: 6.19

====

biological target: HLA-A*11:01; assay: IEDB peptide-MHC binding, purified MHC/competitive/radioactivity; filed as Kd, often an IC50 or EC50 that approximates it; bounds were set here for any values at or beyond the usual limits of such assays; conditions: source organism: Mammarenavirus juninense
Consider the following sequences and their measured Kd readings.
Field: value (include unit after the number)

{"sequence input": "LMAYANQIHH", "measurement": "9.79 µM"}

Okay, now this sequence:
Query: So what's the measured Kd for this one? YTKFWYVNH
Response: 17.8 µM

====

target: HLA-B*08:01; experiment: IEDB peptide-MHC binding, purified MHC/competitive/radioactivity; filed as Kd, often an IC50 or EC50 that approximates it; bounds were set here for any values at or beyond the usual limits of such assays; details: source organism: Vaccinia virus Copenhagen
measurement label: Kd (nM)
Give your result in nM as a bare value.

Query: So what's the measured Kd for this one? FRYVFFEII
Response: 208

====

target: HLA-B*44:02; test: IEDB peptide-MHC binding, purified MHC/direct/fluorescence; filed as Kd, often an IC50 or EC50 that approximates it; bounds were set here for any values at or beyond the usual limits of such assays; conditions: source organism: Giardia lamblia ATCC 50803
measurement label: Kd

Query: So what's the measured Kd for this one? DYIYLPLLK
Response: ≥ 20 µM

====

biological target: HLA-B*73:01; assay: IEDB peptide-MHC binding, purified MHC/competitive/fluorescence; filed as Kd, often an IC50 or EC50 that approximates it; bounds were set here for any values at or beyond the usual limits of such assays; conditions: source organism: Brucella abortus S19
pKd: −log10 of the molar value.
measurement label: pKd

Query: So what's the measured pKd for this one? NEAWGKKPV
Response: ≤ 4.70

====

target: HLA-B*18:01; assay: IEDB peptide-MHC binding, purified MHC/competitive/fluorescence; filed as Kd, often an IC50 or EC50 that approximates it; bounds were set here for any values at or beyond the usual limits of such assays; conditions: source organism: Vibrio parahaemolyticus AQ3810
measurement label: Kd

Query: Form field: Kd recorded for SSRGYSAIW with HLA-B*18:01 (enter value)
Response: ≥ 20 µM
